Let's look at some Ki data for Kappa-type opioid receptor (Cavia porcellus) that I collected from the literature.
OBSERVED PROPERTY: Ki (nM)

These recorded examples may help you get a feel for the data.
COC1O[C@]2(CC[C@H](NCC3CCCCC3)CC2)c2ccccc21 (some centres not stated)
506
Oc1ccc(C[C@H]2CN3C(=CC4=NC[C@H](Cc5ccc(O)cc5)N4C[C@@H]3Cc3ccccc3)N2)cc1
2370

P = CN(C(=O)Cc1ccc(Cl)c(Cl)c1)[C@H](CN1CCCC1)c1cccc(NC(=O)CNC(=O)CNC(=O)CNC(=O)C/N=C(S)/N=C2\C=CC(=C3c4ccc(O)cc4Oc4cc(O)ccc43)C(C(=O)O)=C2)c1
Q = O[C@H]1Cc2ccccc2C2(CCC(N3CCN(C4CCCCC4)CC3)CC2)O1 (some centres not stated)
Qu. Sorting by Ki in descending order, would P or Q appear first? # answer = label of selected item
Ans. Q

====

Below are pKi values for Kappa-type opioid receptor (Cavia porcellus, UniProt P41144) collected from several publications.
pKi: −log10 of the molar value.
OBSERVED PROPERTY: pKi

Some solved entries appear below for comparison.
COC1CCC2CN(CCc3ccccc3)C1CN2Cc1ccccc1 (stereo not given)
5.30
CC(C)C[C@H]1CN2C(=CC3=NC[C@H](C(C)C)N3C[C@@H]2Cc2ccccc2)N1CCc1ccccc1
5.85
COC1O[C@]2(CC[C@H](N(C)CC3CCCCC3)CC2)c2ccccc21 (stereo not given in full)
6.19
CCCCN1CC2CCC(OC)C1CN2Cc1ccccc1 (stereo not given)
6.80
COC1Cc2ccccc2[C@]2(CC[C@@H](N(C)Cc3ccccc3)CC2)O1 (stereo not given in full)
6.60

a = CO[C@@H]1CC[C@H]2CN(C)[C@@H]1CN2Cc1ccccc1
b = CCOC1Cc2ccccc2[C@]2(CC[C@H](NCC3CCCCC3)CC2)O1 (stereo not given in full)
Qu. Smaller pKi value, a vs b ? Answer = label.
Ans. a

====

pKi for Kappa-type opioid receptor (Cavia porcellus), merged from several publications.
pKi: −log10 of the molar value.
OBSERVED PROPERTY: pKi

C/C(=C\CN(C)Cc1ccccc1)c1ccccc1
6.36

I = C[C@@]1(c2cccc(O)c2)O[C@@H]2N3[C@H]1O[C@](C)(c1cccc(O)c1)[C@@H]3O[C@@]2(C)c1cccc(O)c1 (relative stereo)
II = O[C@@H]1CCC2CN(CCc3ccccc3)C1CN2Cc1ccccc1 (stereo partly drawn)
III = COC1O[C@]2(CC[C@H](NCc3ccccc3)CC2)c2ccccc21 (stereo partly drawn)
Qu. # sort list by recorded pKi, greatest to least Note for the reader: the ranking is given by listing the labels in the order requested.
Ans. III, I, II
(III: 6.38, I: 6.18, II: 5.61)
